Test system: MDA-MB-231
Test: Real time cell proliferation, IncuCyte ZOOM, 72 hours
Format: cell-based
Settings: Homo sapiens, MDA-MB-231, 72 h
pIC50: −log10 of the molar value.
measured.metric: pIC50

INSERT INTO results (molecule, inequality_symbol, meas_value) VALUES
  ('Cc1ccc(NC(=O)C2(C(=O)Nc3ccc(F)cc3)CC2)cc1C#Cc1cnc2c(Nc3cnn(C)c3)cccn12', '<', 5.00),
  ('COCCn1cc(Nc2cccn3c(C#Cc4cc(C(=O)Nc5ccc(CN6CCN(C)[C@H](C)C6)c(C(F)(F)F)c5)ccc4C)cnc23)cn1', '=', 6.64),
  ('Cc1ccc(NC(=O)c2ccc(CN3CCN(C)CC3)c(C(F)(F)F)c2)cc1C#Cc1cnc2c(Nc3cnn(C(C)C)c3)cccn12', '=', 6.29),
  ('COCCCn1cc(Nc2cccn3c(C#Cc4cc(C(=O)Nc5ccc(CN6CCC(N(C)C)C6)c(C(F)(F)F)c5)ccc4C)cnc23)cn1 (stereo not drawn)', '=', 6.72),
  ('Cc1ccc(C(=O)Nc2ccc(CN3CCN(C)[C@@H](C)C3)c(C(F)(F)F)c2)cc1C#Cc1cnc2c(Nc3cnn(C)c3)cccn12', '=', 6.77),
  ('COCCCn1cc(Nc2cccn3c(C#Cc4cc(C(=O)Nc5ccc(CN6CCN(C)[C@H](C)C6)c(C(F)(F)F)c5)ccc4C)cnc23)cn1', '=', 6.49);

###

Target: Ret^V804M (Ba/F3) (Homo sapiens, UniProt P07949, V804M, cells depend on it, form not given)
Construct: candidates are KIF5B, CCDC6, TEL (ETV6), or none (full-length RET)
Sequence (P07949 whole entry V804M, form open): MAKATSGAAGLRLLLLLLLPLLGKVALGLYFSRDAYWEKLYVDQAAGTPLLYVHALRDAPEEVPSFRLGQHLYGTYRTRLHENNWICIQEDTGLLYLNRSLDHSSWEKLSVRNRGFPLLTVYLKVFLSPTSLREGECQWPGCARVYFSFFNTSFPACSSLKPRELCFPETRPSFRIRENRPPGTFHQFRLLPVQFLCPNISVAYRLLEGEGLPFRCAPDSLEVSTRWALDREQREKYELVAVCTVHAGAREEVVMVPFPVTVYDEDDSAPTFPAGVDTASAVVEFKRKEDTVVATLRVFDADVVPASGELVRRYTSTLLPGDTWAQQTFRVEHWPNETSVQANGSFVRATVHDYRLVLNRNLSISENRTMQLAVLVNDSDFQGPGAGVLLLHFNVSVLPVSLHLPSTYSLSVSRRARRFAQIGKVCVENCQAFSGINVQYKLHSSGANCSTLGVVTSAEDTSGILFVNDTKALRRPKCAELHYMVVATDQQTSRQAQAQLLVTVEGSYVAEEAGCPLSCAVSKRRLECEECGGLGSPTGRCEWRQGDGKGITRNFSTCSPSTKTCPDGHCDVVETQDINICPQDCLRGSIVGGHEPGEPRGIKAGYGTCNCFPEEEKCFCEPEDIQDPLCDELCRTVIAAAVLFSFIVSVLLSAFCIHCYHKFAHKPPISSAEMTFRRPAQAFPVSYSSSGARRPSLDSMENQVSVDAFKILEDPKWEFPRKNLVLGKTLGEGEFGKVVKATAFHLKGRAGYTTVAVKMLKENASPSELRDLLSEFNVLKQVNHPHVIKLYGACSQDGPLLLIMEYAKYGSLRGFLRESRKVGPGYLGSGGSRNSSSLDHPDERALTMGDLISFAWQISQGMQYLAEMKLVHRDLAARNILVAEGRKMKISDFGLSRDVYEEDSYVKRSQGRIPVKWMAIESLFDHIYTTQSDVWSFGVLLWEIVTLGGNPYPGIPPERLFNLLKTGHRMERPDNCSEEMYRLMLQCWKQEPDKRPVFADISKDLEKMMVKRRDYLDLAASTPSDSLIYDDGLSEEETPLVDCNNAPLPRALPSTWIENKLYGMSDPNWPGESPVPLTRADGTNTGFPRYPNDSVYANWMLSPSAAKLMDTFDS
Assay: Cancer cell proliferation inhibition, MTS assay, 72 hours
Type: cell-based
Settings: read-out: Ret^V804M (Ba/F3) IC50
Recorded GI50 for the following compounds
measured.metric: GI50 (nM)

INSERT INTO assay_data (smiles_code, measured_metric, meas_value) VALUES
  ('Cc1cn(-c2cc(NC(=O)c3ccc(C)c(C#Cc4cnc5c(Nc6cnn(C)c6)cccn45)c3)cc(C(F)(F)F)c2)cn1', 'GI50', 54),
  ('Cc1ccc(C(=O)Nc2ccc(CN3CCN(C)CC3)c(C(F)(F)F)c2)cc1C#Cc1cnc2c(Nc3cnn(C)c3)cccn12', 'GI50', 5),
  ('Cc1ccc(C(=O)Nc2ccc(CN3CCN(C)CC3)c(C(F)(F)F)c2)cc1C#Cc1cnc2c(Nc3cnn(C(C)C)c3)cccn12', 'GI50', 22),
  ('Cc1ccc(C(=O)Nc2ccc(CN3CCN(C)CC3)c(C(F)(F)F)c2)cc1C#Cc1cnc2c(Nc3ccn(C)n3)cccn12', 'GI50', 19),
  ('CCN1CCN(Cc2ccc(NC(=O)c3ccc(C)c(C#Cc4cnc5c(Nc6ccn(C)n6)cccn45)c3)cc2C(F)(F)F)CC1', 'GI50', 23),
  ('Cc1ccc(C(=O)Nc2cccc(C(F)(F)F)c2)cc1C#Cc1cnc2c(Nc3cnn(C)c3)cccn12', 'GI50', 172),
  ('Cc1ccc(C(=O)Nc2cccc(C(F)(F)F)c2)cc1C#Cc1cnc2c(Nc3cnn(C4CCNCC4)c3)cccn12', 'GI50', 98),
  ('Cc1ccc(C(=O)Nc2ccc(CN3CCN(C)CC3)c(C(F)(F)F)c2)cc1C#Cc1cnc2c(Nc3ncccc3F)cccn12', 'GI50', 13000),
  ('CCN1CCN(Cc2ccc(NC(=O)c3ccc(C)c(C#Cc4cnc5c(Nc6cnn(C(C)C)c6)cccn45)c3)cc2C(F)(F)F)CC1', 'GI50', 18),
  ('COc1cc(NC(=O)c2ccc(C)c(C#Cc3cnc4c(Nc5cnn(C)c5)cccn34)c2)cc(OC)c1', 'GI50', 737),
  ('CCN1CCN(Cc2ccc(NC(=O)c3ccc(C)c(C#Cc4cnc5c(Nc6cnn(C)c6)cccn45)c3)cc2C(F)(F)F)CC1', 'GI50', 10),
  ('Cc1ccc(C(=O)Nc2ccc(CN3CCN(C)CC3)c(C(F)(F)F)c2)cc1C#Cc1cnc2c(Nc3ccccc3N)cccn12', 'GI50', 2380),
  ('Cc1ccc(C(=O)Nc2ccc(Cl)cc2)cc1C#Cc1cnc2c(Nc3cnn(C)c3)cccn12', 'GI50', 1920);

###

Biological target: UniProt:P12931
Sequence (P12931 whole entry): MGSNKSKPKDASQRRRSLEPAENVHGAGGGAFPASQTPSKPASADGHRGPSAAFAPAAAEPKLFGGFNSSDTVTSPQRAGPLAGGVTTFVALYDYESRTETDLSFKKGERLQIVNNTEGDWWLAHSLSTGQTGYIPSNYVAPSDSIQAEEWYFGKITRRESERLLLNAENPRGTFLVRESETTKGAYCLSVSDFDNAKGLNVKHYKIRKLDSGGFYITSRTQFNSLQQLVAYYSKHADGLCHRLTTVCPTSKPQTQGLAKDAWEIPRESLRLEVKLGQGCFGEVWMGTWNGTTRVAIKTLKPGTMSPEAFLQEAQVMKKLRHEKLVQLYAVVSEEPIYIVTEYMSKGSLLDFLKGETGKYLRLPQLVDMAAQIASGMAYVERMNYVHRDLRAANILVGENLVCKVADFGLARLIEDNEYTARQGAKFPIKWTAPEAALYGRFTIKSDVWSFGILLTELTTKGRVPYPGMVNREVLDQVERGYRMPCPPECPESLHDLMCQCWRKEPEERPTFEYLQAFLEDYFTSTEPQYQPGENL
pKd: −log10 of the molar value.
measured.metric: pKd

INSERT INTO measurements (smiles_code, test_target, meas_value) VALUES
  ('CCN1CCN(Cc2ccc(NC(=O)c3ccc(C)c(C#Cc4cnc5c(Nc6cnn(C)c6)cccn45)c3)cc2C(F)(F)F)CC1', 'UniProt:P12931', 8.00);

###

Target: RET(V804M) (Homo sapiens, UniProt P07949, V804M)
Assay: Enzyme inhibitory activity (Kd), Reaction Biology Co.
pKd: −log10 of the molar value.
measured.metric: pKd

INSERT INTO assay_data (molecule, meas_value) VALUES
  ('CCN1CCN(Cc2ccc(NC(=O)c3ccc(C)c(C#Cc4cnc5c(Nc6cnn(C(C)C)c6)cccn45)c3)cc2C(F)(F)F)CC1 [Example 15]', 7.77),
  ('Cc1ccc(C(=O)Nc2ccc(CN3CCC(N(C)C)C3)c(C(F)(F)F)c2)cc1C#Cc1cnc2c(Nc3cnn(C(C)C)c3)cccn12 (centres unmarked) [Example 30]', 7.89),
  ('Cc1ccc(NC(=O)c2ccc(CN3CCN(C)CC3)c(C(F)(F)F)c2)cc1C#Cc1cnc2c(Nc3cnn(C(C)C)c3)cccn12 [Example 77]', 7.72),
  ('Cc1ccc(C(=O)Nc2ccc(CN3CCN(C)CC3)c(C(F)(F)F)c2)cc1C#Cc1cnc2c(Nc3cnn(C(C)C)c3)cccn12 [Example 14]', 7.62),
  ('Cc1cn(-c2cc(NC(=O)c3ccc(C)c(C#Cc4cnc5c(Nc6cnn(C)c6)cccn45)c3)cc(C(F)(F)F)c2)cn1 [Example 12]', 7.49);

###

Tested on: MDA-MB-231
Test: Real time cell proliferation, IncuCyte ZOOM, 72 hours
Format: cell-based
Conditions: Homo sapiens, MDA-MB-231, 72 h
Documented IC50 across a set of compounds
measured.metric: IC50

INSERT INTO results (compound, measured_metric, meas_value) VALUES
  ('Cc1ccc(C(=O)Nc2cccc(F)c2)cc1C#Cc1cnc2c(Nc3cnn(C)c3)cccn12', 'IC50', '> 10000 nM'),
  ('Cc1ccc(C(=O)Nc2ccc(Cl)cc2)cc1C#Cc1cnc2c(Nc3cnn(C)c3)cccn12', 'IC50', '> 10000 nM'),
  ('COCCn1cc(Nc2cccn3c(C#Cc4cc(C(=O)Nc5cccc(C(F)(F)F)c5)ccc4C)cnc23)cn1', 'IC50', '1160 nM'),
  ('COCCn1cc(Nc2cccn3c(C#Cc4cc(C(=O)Nc5ccc(CN6CCC(N(C)C)C6)c(C(F)(F)F)c5)ccc4C)cnc23)cn1 (stereo not shown)', 'IC50', '510 nM');

###

Test system: A375
Assay: Cancer cell proliferation inhibition, CCK-8, 72 hours
Format: cell-based
Conditions: Homo sapiens, A-375, 72 h
pIC50: −log10 of the molar value.
Recorded pIC50 values for a group of compounds are listed next.
measured.metric: pIC50

INSERT INTO measurements (compound, inequality_symbol, meas_value) VALUES
  ('CCn1cc(Nc2cccn3c(C#Cc4cc(C(=O)Nc5ccc(N6CCOCC6)c(F)c5)ccc4C)cnc23)cn1 [Example 56]', '<', 5.00),
  ('CCN1CCN(Cc2ccc(NC(=O)c3ccc(C)c(C#Cc4cnc5c(Nc6cnn(CC)c6)cccn45)c3)cc2C(F)(F)F)CC1 [Example 23]', '=', 6.85),
  ('CCn1cc(Nc2cccn3c(C#Cc4cc(C(=O)Nc5ccc(CN6CC[C@H](N(C)C)C6)c(C(F)(F)F)c5)ccc4C)cnc23)cn1 [Example 54]', '=', 6.34),
  ('Cc1ccc(C(=O)Nc2ccc(CN3CCC(N(C)C)C3)c(C(F)(F)F)c2)cc1C#Cc1cnc2c(Nc3cnn(CCCN(C)C)c3)cccn12 (stereo not drawn) [Example 35]', '=', 5.89),
  ('Cc1ccc(C(=O)Nc2ccc(CN3CCN(C)CC3)c(C(F)(F)F)c2)cc1C#Cc1cnc2c(Nc3ncccc3F)cccn12 [Example 16]', '<', 5.00),
  ('Cc1ccc(NC(=O)C2(C(=O)Nc3ccc(F)cc3)CC2)cc1C#Cc1cnc2c(Nc3cnn(C(C)C)c3)cccn12 [Example 78]', '=', 5.34);

###

Target: RET(V804M) (Homo sapiens, UniProt P07949, V804M)
Experiment: Enzyme inhibitory activity (Kd), Reaction Biology Co.
pKd: −log10 of the molar value.
Below: a set of entries, each annotated with reported pKd.
measured.metric: pKd

INSERT INTO measurements (smiles_code, measured_metric, meas_value) VALUES
  ('Cc1ccc(C(=O)Nc2ccc(CN3CCN(C)CC3)c(C(F)(F)F)c2)cc1C#Cc1cnc2c(Nc3cnn(C)c3)cccn12', 'pKd', 7.96),
  ('CCN1CCN(Cc2ccc(NC(=O)c3ccc(C)c(C#Cc4cnc5c(Nc6cnn(C)c6)cccn45)c3)cc2C(F)(F)F)CC1', 'pKd', 8.04),
  ('Cc1ccc(C(=O)Nc2ccc(CN3CCN(C)CC3)c(C(F)(F)F)c2)cc1C#Cc1cnc2c(Nc3ccn(C)n3)cccn12', 'pKd', 7.44),
  ('Cc1ccc(C(=O)Nc2ccc(CN3CCN(C)CC3)c(C(F)(F)F)c2)cc1C#Cc1cnc2c(Nc3ccccc3N)cccn12', 'pKd', 8.22),
  ('Cc1ccc(C(=O)Nc2ccc(CN3CCN(C)CC3)c(C(F)(F)F)c2)cc1C#Cc1cnc2c(Nc3cnn(CCCN(C)C)c3)cccn12', 'pKd', 7.92),
  ('Cc1ccc(NC(=O)Nc2ccc(CN3CCN(C)CC3)c(C(F)(F)F)c2)cc1C#Cc1cnc2c(Nc3cnn(C(C)C)c3)cccn12', 'pKd', 7.54);
